Below, each entry is listed alongside its reported pIC50.
target: CCR2 (Homo sapiens (Human)); assay: MCP-1 Receptor Binding Assay in THP-1 Cells; conditions: 0.5 nM 125I labeled MCP-1, 2 hours at 30° C., read-out: Inhibition of MCP-1 Binding IC50 MCP1B;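 note: THP-1 is a human monocytic cell line, and nonspecific binding was defined with 1 µM unlabeled MCP-1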
Sequence (P41597 whole entry): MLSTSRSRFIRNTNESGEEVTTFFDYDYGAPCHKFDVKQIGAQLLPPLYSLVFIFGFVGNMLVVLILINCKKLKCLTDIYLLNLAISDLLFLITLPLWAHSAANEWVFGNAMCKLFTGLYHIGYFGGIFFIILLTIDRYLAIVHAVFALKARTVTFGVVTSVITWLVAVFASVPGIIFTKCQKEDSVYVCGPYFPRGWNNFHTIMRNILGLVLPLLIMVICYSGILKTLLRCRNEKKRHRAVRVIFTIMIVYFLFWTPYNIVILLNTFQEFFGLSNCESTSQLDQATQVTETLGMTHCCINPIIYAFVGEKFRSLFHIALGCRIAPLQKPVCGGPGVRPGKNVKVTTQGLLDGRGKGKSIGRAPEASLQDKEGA
Answer as the number alone; pIC50 is minus log10 of concentration in mol/L.

Examples from the recorded data:
>  <Molecule>
CN(C)C(=O)OC[C@H]1CC[C@@H](N2CC(NC(=O)CNc3ncnc4ccc(C(F)(F)F)cc34)C2)CC1 [Example 124]

>  <pIC50>
6.68

$$$$
>  <Molecule>
NC(=O)c1cc(NCC(=O)NC2CN([C@H]3CC[C@@](O)(c4cncs4)CC3)C2)c2cc(C(F)(F)F)ccc2n1 [Example 62]

>  <pIC50>
8.05

$$$$
>  <Molecule>
CCNC(=O)C1CCC(N2CC(NC(=O)CNc3ncnc4ccc(C(F)(F)F)cc34)C2)CC1 (stereo not shown) [Example 127]

>  <pIC50>
6.70

$$$$
>  <Molecule>
O=C(CNc1ncnc2ccc(C(F)(F)F)cc12)NC1CN(C2CCC(N3CCCC3=O)CC2)C1 (stereo not shown) [Example 40]

>  <pIC50>
7.11

$$$$
>  <Molecule>
CN([C@H]1CC[C@@H](N2CC(NC(=O)CNc3ncnc4ccc(C(F)(F)F)cc34)C2)CC1)S(C)(=O)=O [Example 49]

>  <pIC50>
6.02

$$$$

Recorded pIC50 of CC(C)C(O)[C@H]1CC[C@@H](N2CC(NC(=O)CNc3ncnc4ccc(C(F)(F)F)cc34)C2)CC1 (stereo partly shown) [Example 7] , please.
8.05

How about this molecule: CC(C)[C@@H](O)[C@H]1CC[C@H](N2CC(NC(=O)CNc3nccc4ncc(C(F)(F)F)cc34)C2)CC1 [Example 156]
6.37
